Tested on: SW-620
Test: NCI tumour cell line growth inhibition, 48 h
Calls of active or inactive are those of the source. No stated cut-off is given here; in the data, active = GI50 up to about 1.1 µM and inactive = higher.
Listed compounds paired with reported GI50

{"columns": ["compound", "targetSystem", "recordedMeasurement"],
 "data": [
  ["COC(=O)C(Cc1ccccc1)NC(=O)C(CCCNC(=N)N)NC(=O)OCc1ccccc1 (stereo unspecified)", "SW-620", "> 100 µM (inactive)"],
  ["CC(C)(C)OC(=O)N1CC(CCl)c2ccc(O)cc21 (stereo unspecified)", "SW-620", "2.59 µM (inactive)"],
  ["O=C1OCc2nc3c(c(-c4ccccc4C(F)(F)F)c21)C(=O)OC3", "SW-620", "> 100 µM (inactive)"],
  ["ClCCN(CCCl)c1ccc(CNCCCNCc2ccc(N(CCCl)CCCl)cc2)cc1", "SW-620", "3.03 µM (inactive)"],
  ["CCOC(=O)Cc1nc2c(O)ncnc2n1C1OC(COC(C)=O)C(OC(C)=O)C1OC(C)=O (stereo unspecified)", "SW-620", "> 100 µM (inactive)"],
  ["C=CCONC(=O)c1ccc(Cl)cc1", "SW-620", "> 100 µM (inactive)"],
  ["N/C(=N\\O)N/N=C/c1cc(Br)cc(Br)c1O", "SW-620", "8.95 µM (inactive)"],
  ["CCCCCCCCCCCCCCCC(=O)NCC(OCC)OCC", "SW-620", "> 100 µM (inactive)"],
  ["NS(=O)(=O)c1cc(S(N)(=O)=O)c(NC(=O)N(c2ccccc2)c2ccccc2)c(Cl)c1Cl", "SW-620", "29.9 µM (inactive)"],
  ["CC(=O)Oc1cc(OC(C)=O)c2c(c1C)CC[C@@H]1[C@@H]2CC[C@]2(C)[C@@H](OC(C)=O)CC[C@@H]12", "SW-620", "18.9 µM (inactive)"]
]}

Note: attention shifts to another entry.
Dear colleague, I am looking for the recorded GI50 of the following compound: CC1(C)N(OC2CCCCO2)C(c2ccccc2)C(c2ccccc2)=[N+]1[O-] (stereo unspecified)
> 100 µM (inactive)

----------
System: COLO 205
Assay: NCI tumour cell line growth inhibition, 48 h
The source made the active and inactive calls. Cut-off read from the data, not from the text of the source: active = GI50 up to about 1.1 µM and inactive = higher.
measurementLabel: GI50

Example cases with answers are listed next.
{"columns": ["compound", "GI50"],
 "data": [
  ["COc1ccc2oc(=N)c(C(=O)Nc3ccccc3)cc2c1", "30.1 µM (inactive)"],
  ["O=C1C(c2ccccc2)=C(c2ccccc2)C(c2ccc(CCCCCCc3ccc(C4=C(c5ccccc5)C(=O)C(c5ccccc5)=C4c4ccccc4)cc3)cc2)=C1c1ccccc1", "> 100 µM (inactive)"],
  ["N#Cc1nc(CCN2C(=O)c3ccccc3C2=O)oc1N", "> 100 µM (inactive)"],
  ["O=C(NC(=O)c1cc2cc(Br)cc(Br)c2oc1=O)Oc1ccccc1", "> 100 µM (inactive)"],
  ["O=C(O)CCCNS(=O)(=O)c1ccc2ccccc2c1", "> 100 µM (inactive)"]
]}

Dear colleague, I am looking for the recorded GI50 of the following compound: COc1cc2nc(-c3ccccc3F)nc(O)c2cc1OC
> 100 µM (inactive)

Field entry: c1c[nH]c(-c2ccc(-c3ccc[nH]3)c3nsnc23)c1
1.53 µM (inactive)

Field entry: O=C(CC1OC(O)C(Cl)=C1Cl)c1cccnc1 (stereo not given)
> 100 µM (inactive)

Field entry: CC(C)C1=C(Cc2ccccc2)C(=O)O/C1=C\c1cc(Cl)c(O)c(Cl)c1
17.4 µM (inactive)

Field entry: CC(C)(C)N/N=C(\C(=O)Nc1nnc(S)[nH]1)C1C(=O)Nc2ccccc2[S+]1[O-] (stereo not given)
> 100 µM (inactive)

Data origin, for the record: ChEMBL document CHEMBL1201862
